- assay-system: calf intestinal alkaline phosphatase (CIAP) (Bos taurus)
- Sequence (P19111 20-506): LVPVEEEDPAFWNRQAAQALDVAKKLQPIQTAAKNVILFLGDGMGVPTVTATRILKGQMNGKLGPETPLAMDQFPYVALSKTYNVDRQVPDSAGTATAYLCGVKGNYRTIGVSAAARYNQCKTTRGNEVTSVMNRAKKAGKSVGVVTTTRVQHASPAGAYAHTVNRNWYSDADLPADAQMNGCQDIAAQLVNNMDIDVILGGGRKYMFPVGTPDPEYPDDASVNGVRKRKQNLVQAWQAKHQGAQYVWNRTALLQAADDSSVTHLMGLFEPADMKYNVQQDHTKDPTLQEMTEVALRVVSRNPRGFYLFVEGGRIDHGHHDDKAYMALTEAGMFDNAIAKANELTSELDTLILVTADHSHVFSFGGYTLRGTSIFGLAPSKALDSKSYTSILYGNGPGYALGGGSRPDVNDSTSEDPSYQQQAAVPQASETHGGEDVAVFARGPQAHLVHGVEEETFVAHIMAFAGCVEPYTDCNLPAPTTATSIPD
measured-endpoint: Ki (µM)
One number for each entry, in µM.

Inquiry: I'd like to know its Ki. The compound in question is Nc1ncnc2c1ncn2[C@@H]1O[C@H](COP(=O)(O)OP(=O)(O)OP(=O)(O)O)[C@@H](O)[C@H]1O [ATP, adenosine triphosphate]
Reply text: 7.6
